# ASSAY_NAME: NCI Yeast Anticancer Drug Screen. Data for the rad18 strain (AID 177)
# CONDITION_NOTES: S. cerevisiae rad18 mutant growth inhibition; at 33.0 µM; hits give high values
# Procedure: Growth inhibition of yeast strains with defined genetic alterations is measured as a screen for potential anti-cancer activity. Selected strains with alterations in DNA damage repair or cell cycle control were exposed to compounds and growth inhibition was measured relative to vehicle treated controls. The strain used in this assay is rad18
The panel holds about 79,000 compounds, 15% with a hit somewhere; the sample as a whole holds those more often.
MEASURED_QUANTITY: growth inhibition (%)

{"COMPOUND": "NC(=S)NC(=S)Nc1ccccc1", "MEASURED_QUANTITY": "growth inhibition", "RECORDED_MEASUREMENT": 21}
{"COMPOUND": "COc1ccc(C(=O)Oc2ccccc2Br)cc1", "MEASURED_QUANTITY": "growth inhibition", "RECORDED_MEASUREMENT": 10}
{"COMPOUND": "O=C(O)Cc1cc(F)ccc1C(=O)O", "MEASURED_QUANTITY": "growth inhibition", "RECORDED_MEASUREMENT": 12}
{"COMPOUND": "Cc1c2ccnc(C(=O)NCCN(C)C)c2cc2c3cc(O)ccc3n(C)c12", "MEASURED_QUANTITY": "growth inhibition", "RECORDED_MEASUREMENT": 3}
{"COMPOUND": "COC(=O)C1(C)CCc2c(ccc3ccccc23)C1=O (configuration not stated)", "MEASURED_QUANTITY": "growth inhibition", "RECORDED_MEASUREMENT": 7}
{"COMPOUND": "NC(N)=NS(=O)(=O)c1ccc(Nc2c3ccccc3nc3c(C(=O)NCCO)cccc23)cc1", "MEASURED_QUANTITY": "growth inhibition", "RECORDED_MEASUREMENT": 7}
{"COMPOUND": "CN(C)Cc1cc(N=Nc2ccc(Cl)cc2)ccc1OC(=O)c1ccccc1", "MEASURED_QUANTITY": "growth inhibition", "RECORDED_MEASUREMENT": 17}
{"COMPOUND": "O=c1nc2n(Cc3ccccc3)c3ccccc3nc-2c(=O)[nH]1", "MEASURED_QUANTITY": "growth inhibition", "RECORDED_MEASUREMENT": 9}
{"COMPOUND": "COc1ccc(/C=C/C(=O)c2ccccc2)cc1OC", "MEASURED_QUANTITY": "growth inhibition", "RECORDED_MEASUREMENT": 72}
{"COMPOUND": "CC(C)(C)CC(C)(C)c1cc(O)c(O)c(CN2CCCCC2)c1", "MEASURED_QUANTITY": "growth inhibition", "RECORDED_MEASUREMENT": 28}
{"COMPOUND": "Cc1cc(C)c(NC(=S)NC(=O)c2ccccc2)cc1C", "MEASURED_QUANTITY": "growth inhibition", "RECORDED_MEASUREMENT": -41}
{"COMPOUND": "S=c1[nH]c2cc3ccccc3cc2[nH]1", "MEASURED_QUANTITY": "growth inhibition", "RECORDED_MEASUREMENT": 18}

Hey, just so you know, these numbers are from PubChem BioAssay (NCI).
